In this section, each of the molecules is paired with its reported response vs control in vivo at 40 mg/kg.
# Tested on: Ehrlich carcinoma
# PROCEDURE DETAILS: Activities against Ehrlich carcinoma (antitumor effect, survival time in mice)
# Format: in vivo, ICR female mice
# CONDITION SET: Mus musculus, ip, 720 h, 40.0 mg/kg, intraperitoneal, once a day for 10 days, average survival time counted 30 days after implantation, read-out: Antitumor effect (T/C %)
I only need the number, in %, no unit after it.

Before answering, review these 2 worked examples.
>  <SMILES DATA>
CCCCCCCC(=O)O[C@H]1[C@H](O)[C@@H](O)[C@@H](O[C@H]2O[C@H](CO)[C@@H](OC(=O)CCCCCCC)[C@H](O)[C@H]2O)O[C@@H]1CO

>  <MEASURE NAME>
response vs control in vivo at 40 mg/kg

>  <ENDPOINT VALUE>
183

$$$$
>  <SMILES DATA>
CCCCCCCCCC(=O)O[C@H]1[C@H](O)[C@@H](O)[C@@H](O[C@H]2O[C@H](CO)[C@@H](OC(=O)CCCCCCCCC)[C@H](O)[C@H]2O)O[C@@H]1CO

>  <MEASURE NAME>
response vs control in vivo at 40 mg/kg

>  <ENDPOINT VALUE>
188

$$$$

Please examine the following record next.
Provide response vs control in vivo at 40 mg/kg, recorded with Ehrlich carcinoma, of `CCCCCCCCCCCCCCCCCCCCCC(=O)O[C@H]1[C@H](O)[C@@H](O)[C@@H](O[C@H]2O[C@H](CO)[C@@H](OC(=O)CCCCCCCCCCCCCCCCCCCCC)[C@H](O)[C@H]2O)O[C@@H]1CO`
157

----------
In this section, each of the compounds is paired with its reported response vs control in vivo at 4 mg/kg.
# System: Ehrlich carcinoma
# PROCEDURE DETAILS: Activities against Ehrlich carcinoma (antitumor effect, survival time in mice)
# Assay type: in vivo, ICR female mice
# CONDITION SET: Mus musculus, ip, 720 h, 4.0 mg/kg, intraperitoneal, once a day for 10 days, average survival time counted 30 days after implantation, read-out: Antitumor effect (T/C %)
Enter the number, and then the unit.

>  <SMILES DATA>
CCCC(=O)O[C@H]1[C@H](O)[C@@H](O)[C@@H](O[C@H]2O[C@H](CO)[C@@H](OC(=O)CCC)[C@H](O)[C@H]2O)O[C@@H]1CO

>  <MEASURE NAME>
response vs control in vivo at 4 mg/kg

>  <ENDPOINT VALUE>
142%

$$$$
>  <SMILES DATA>
CCCCCCCCCCCC(=O)O[C@H]1[C@H](O)[C@@H](O)[C@@H](O[C@H]2O[C@H](CO)[C@@H](OC(=O)CCCCCCCCCCC)[C@H](O)[C@H]2O)O[C@@H]1CO

>  <MEASURE NAME>
response vs control in vivo at 4 mg/kg

>  <ENDPOINT VALUE>
180%

$$$$
>  <SMILES DATA>
CCCCCCCC(=O)O[C@H]1[C@H](O)[C@@H](O)[C@@H](O[C@H]2O[C@H](CO)[C@@H](OC(=O)CCCCCCC)[C@H](O)[C@H]2O)O[C@@H]1CO

>  <MEASURE NAME>
response vs control in vivo at 4 mg/kg

>  <ENDPOINT VALUE>
117%

$$$$

Supply measured response vs control in vivo at 4 mg/kg of `CCCCCCCCCCCCCCCC(=O)O[C@H]1[C@H](O)[C@@H](O)[C@@H](O[C@H]2O[C@H](CO)[C@@H](OC(=O)CCCCCCCCCCCCCCC)[C@H](O)[C@H]2O)O[C@@H]1CO` in your reply.
216%

Supply measured response vs control in vivo at 4 mg/kg of `CC(=O)O[C@H]1[C@H](O)[C@@H](O)[C@@H](O[C@H]2O[C@H](CO)[C@@H](OC(C)=O)[C@H](O)[C@H]2O)O[C@@H]1CO` in your reply.
105%
